# ASSAYED_SYSTEM: metalloproteinase purified from snake venom, Echis Carinatus
# ASSAY_COMMENT: Inhibition of metalloproteinase purified from Echis Carinatus venom
# TEST_PARAMETERS: Table 5; unit M
ENDPOINT: IC50 (µM)
Give your result in µM as a bare value.

Before answering, review these 2 worked examples.
compound="CC(C)C[C@H](NC(=O)c1cnccn1)C(=O)N1Cc2[nH]c3ccccc3c2C[C@H]1C(=O)O [Compound 18, 2-PZC--(L)--Leu--(S)--Cyt--OH]" assay_value=7
compound="CC(C)C[C@H](NC(=O)c1cc2ccccc2o1)C(=O)N1Cc2[nH]c3ccccc3c2C[C@H]1C(=O)O [Compound 15, 2-BZF--(L)--Leu--(S)--Cyt--OH]" assay_value=2

Query: Can you look up the measured IC50 of Cc1ccc(C(=O)N[C@@H](CC(C)C)C(=O)N2Cc3[nH]c4ccccc4c3C[C@H]2C(=O)O)cn1 [Compound 22, 6-MNC--(L)--Leu--(S)--Cyt--OH] for me?
Response: 14
